Target: DCAF1(WDR) + BRD9-BD(130-250) (Homo sapiens, UniProt Q9H8M2+Q9Y4B6, E1398S)
Sequence (Q9Y4B6 1073-1399 E1398S): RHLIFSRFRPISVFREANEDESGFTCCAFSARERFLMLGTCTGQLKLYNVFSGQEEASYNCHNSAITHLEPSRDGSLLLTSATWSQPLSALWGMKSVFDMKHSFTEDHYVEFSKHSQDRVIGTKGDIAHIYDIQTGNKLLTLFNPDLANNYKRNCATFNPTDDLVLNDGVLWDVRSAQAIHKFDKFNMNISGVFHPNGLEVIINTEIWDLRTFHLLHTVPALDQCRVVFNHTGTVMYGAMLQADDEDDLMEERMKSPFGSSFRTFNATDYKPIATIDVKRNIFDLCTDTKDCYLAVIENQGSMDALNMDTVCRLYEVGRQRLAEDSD
Sequence (Q9H8M2 130-250): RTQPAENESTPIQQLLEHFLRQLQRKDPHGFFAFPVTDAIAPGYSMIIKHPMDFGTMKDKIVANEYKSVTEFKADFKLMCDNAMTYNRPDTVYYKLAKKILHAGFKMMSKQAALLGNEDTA
Experiment: SPR ternary binding assay, immobilized DCAF1(WDR), BRD9-BD(130-250) in buffer
Settings: Kd1, apparent KD of first sigmoidal transition, in the presence of 0.2 µM BRD9-BD(130-250)
Endpoint: Kd (µM)
State just the number; it will be interpreted in µM.

[ask] Look up and state reported Kd for "COc1cc(-c2cn(C)c(=O)c3cnccc23)c(OC)cc1CN1CCC(OCCCCCC(=O)N2CCN(c3ccc4c(NCCN)nc(C5(c6ccc(Cl)cc6)CCCCC5)nc4c3)CC2)CC1"
[reply] 0.02

###

Biological target: DCAF1(WDR) (Homo sapiens, UniProt Q9Y4B6, E1398S)
Construct: His6 (C); made in house; host or cells: Sf9 insect cells (baculovirus), co-expressed with BirA
Sequence (Q9Y4B6 1073-1399 E1398S): as the sequence (Q9Y4B6 1073-1399 E1398S) above
Experiment: DCAF1 TR-FRET competition assay, standard binary format
Type: binding
Conditions: binary; read-out: IC50 in TR-FRET assays (response to reviewers)
Description: Competition assay conditions consist of 20 µL total volume in white 384-well plates (Greiner), in 30 mM phosphate buffer pH 7.4 containing 140 mM NaCl, 0.01% Tween20, 1 mM TCEP and 1% final DMSO. […] Samples were then incubated at 22 °C for 30 min before reading using a Tecan infinite M-1000 or PheraStar FSX (excitation 340 nm, emission 490 and 520 nm). […]
Endpoint: pIC50
Convention used: pIC50 is expressed as -log10 of the molar concentration.

[ask] Look up and state reported pIC50 for "COc1cc(-c2cn(C)c(=O)c3cnccc23)c(OC)cc1CN1CCC(OCCCCCC(=O)N2CCN(c3ccc4c(NCCN(C)C)nc(C5(c6ccc(Cl)cc6)CCCCC5)nc4c3)CC2)CC1"
[reply] 6.09

###

Biological target: BTK (Homo sapiens)
Sequence (Q06187 2-659 limits assumed): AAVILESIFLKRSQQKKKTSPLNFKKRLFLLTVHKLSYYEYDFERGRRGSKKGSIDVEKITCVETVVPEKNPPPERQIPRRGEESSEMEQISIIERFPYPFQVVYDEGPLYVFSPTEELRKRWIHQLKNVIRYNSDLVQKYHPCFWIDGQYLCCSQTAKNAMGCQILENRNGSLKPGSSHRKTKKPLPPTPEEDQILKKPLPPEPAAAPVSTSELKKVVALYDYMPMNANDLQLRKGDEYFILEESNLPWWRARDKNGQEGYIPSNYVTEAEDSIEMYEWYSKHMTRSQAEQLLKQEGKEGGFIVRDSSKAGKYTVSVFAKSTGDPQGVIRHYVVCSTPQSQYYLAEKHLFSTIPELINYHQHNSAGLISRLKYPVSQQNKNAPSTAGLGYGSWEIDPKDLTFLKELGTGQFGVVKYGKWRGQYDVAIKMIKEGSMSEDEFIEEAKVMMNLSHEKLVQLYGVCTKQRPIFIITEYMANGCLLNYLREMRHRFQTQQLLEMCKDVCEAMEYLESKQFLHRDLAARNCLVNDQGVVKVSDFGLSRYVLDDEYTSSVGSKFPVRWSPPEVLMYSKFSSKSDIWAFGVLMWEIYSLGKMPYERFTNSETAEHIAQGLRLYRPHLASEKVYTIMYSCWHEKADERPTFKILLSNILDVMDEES
Assay: BTK-GFP degradation by flow cytometry in TMD8 BTK-GFP/mCh cells
Assay type: cell-based
Design: performed with full-length BTK and endogenous DCAF1; expressed in transfected cells; host or cells: TMD8 cells, lentiviral, blasticidin-selected (TMD8 BTK-GFP/mCh)
Settings: TMD8 BTK-GFP/mCh, 24 h; read-out: DC50 BTK-Degradation
Listed below: DC50 values for each entry.
State just the number; it will be interpreted in nM.

Consider the following illustrative entries.
Cc1c(NC(=O)c2ccc(C(C)(C)O)cc2F)cc(F)cc1-c1ncnc2[nH]c(-c3ccc(CNCCOCCOCCOCCOCCOCCOCCOCCOCCOCCOCCOCCOCCC(=O)N4CCN(c5ccc6c(NCCN)nc(C7(c8ccc(Cl)cc8)CCCCC7)nc6c5)CC4)cc3)cc12 [DBt-5] ... 50
Cc1nc(Nc2ncc(C(=O)Nc3c(C)cccc3Cl)s2)cc(N2CCC(OC3CCN(CCCCCCCC(=O)N4CCN(c5ccc6c(NCCN)nc(C7(c8ccc(Cl)cc8)CCCCC7)nc6c5)CC4)CC3)CC2)n1 [DDa-1] ... 91.3

[ask] Fetch value of DC50 on BTK (Homo sapiens) for Cc1c(NC(=O)c2ccc(C(C)(C)O)cc2F)cc(F)cc1-c1ncnc2[nH]c(-c3ccc(CN4CCC5(CCNCC5)CC4)cc3)cc12 [compound 18, reference compound] .
[reply] 7890

[ask] Fetch value of DC50 on BTK (Homo sapiens) for Cc1c(NC(=O)N2CC(O)(CC(C)(C)C)C2)cc(F)cc1-c1ncnc2[nH]c(-c3cnn(CC(=O)N4CCC5(CC4)CN(CCNC(=O)CCCC(=O)N4CCN(c6ccc7c(NCCN)nc(C8(c9ccc(Cl)cc9)CCCCC8)nc7c6)CC4)CCO5)c3)cc12 [DBt-10] .
[reply] 137
